# IC50 per entry
molecular target: human MRGPRX2 (Homo sapiens); experiment: Ca2+ mobilization assay (FLIPR TETRA): inhibition of Cortistatin-14 mediated MRGPRX2 activation
Sequence (Q96LB1 whole entry): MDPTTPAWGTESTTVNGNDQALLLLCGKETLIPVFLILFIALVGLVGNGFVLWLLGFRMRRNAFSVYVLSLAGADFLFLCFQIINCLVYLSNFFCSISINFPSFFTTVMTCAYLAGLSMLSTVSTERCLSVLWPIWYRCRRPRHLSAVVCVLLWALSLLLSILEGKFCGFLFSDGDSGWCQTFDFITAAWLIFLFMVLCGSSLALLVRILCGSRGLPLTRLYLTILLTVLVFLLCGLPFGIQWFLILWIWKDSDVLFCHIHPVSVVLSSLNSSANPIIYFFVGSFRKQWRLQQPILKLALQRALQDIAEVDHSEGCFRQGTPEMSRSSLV

Observe how each entry below is paired with its result.
molecule: C[C@@H](C(=O)Nc1cnc(Oc2ccc(F)cc2F)cn1)N1CCC(F)(F)[C@@H](c2ccc(=O)[nH]c2)C1
obs.value: ≤ 10 nM

molecule: C[C@@H](C(=O)Nc1cnc(Oc2ccc(F)cc2CO)cn1)N1CCC(F)(F)[C@@H](c2ccc(=O)[nH]c2)C1
obs.value: 10 to 100 nM

Request the reported IC50 associated with CC(C(=O)Nc1ccc(F)cn1)N1CCC(F)(F)C(c2c[nH]c(=O)c(C(N)=O)c2)C1 (stereo not shown)
100 to 3160 nM

IC50 for C[C@@H](C(=O)Nc1ccc(Cl)cn1)N1CCC[C@@H](c2c[nH]c(=O)c(N)n2)C1 (single isomer, unassigned) ?
100 to 3160 nM

Cited source: patent US11976057B2
